target of assay: αIIbβ3 (Homo sapiens, UniProt P05106+P08514)
Sequence (P08514 32-887 limits assumed): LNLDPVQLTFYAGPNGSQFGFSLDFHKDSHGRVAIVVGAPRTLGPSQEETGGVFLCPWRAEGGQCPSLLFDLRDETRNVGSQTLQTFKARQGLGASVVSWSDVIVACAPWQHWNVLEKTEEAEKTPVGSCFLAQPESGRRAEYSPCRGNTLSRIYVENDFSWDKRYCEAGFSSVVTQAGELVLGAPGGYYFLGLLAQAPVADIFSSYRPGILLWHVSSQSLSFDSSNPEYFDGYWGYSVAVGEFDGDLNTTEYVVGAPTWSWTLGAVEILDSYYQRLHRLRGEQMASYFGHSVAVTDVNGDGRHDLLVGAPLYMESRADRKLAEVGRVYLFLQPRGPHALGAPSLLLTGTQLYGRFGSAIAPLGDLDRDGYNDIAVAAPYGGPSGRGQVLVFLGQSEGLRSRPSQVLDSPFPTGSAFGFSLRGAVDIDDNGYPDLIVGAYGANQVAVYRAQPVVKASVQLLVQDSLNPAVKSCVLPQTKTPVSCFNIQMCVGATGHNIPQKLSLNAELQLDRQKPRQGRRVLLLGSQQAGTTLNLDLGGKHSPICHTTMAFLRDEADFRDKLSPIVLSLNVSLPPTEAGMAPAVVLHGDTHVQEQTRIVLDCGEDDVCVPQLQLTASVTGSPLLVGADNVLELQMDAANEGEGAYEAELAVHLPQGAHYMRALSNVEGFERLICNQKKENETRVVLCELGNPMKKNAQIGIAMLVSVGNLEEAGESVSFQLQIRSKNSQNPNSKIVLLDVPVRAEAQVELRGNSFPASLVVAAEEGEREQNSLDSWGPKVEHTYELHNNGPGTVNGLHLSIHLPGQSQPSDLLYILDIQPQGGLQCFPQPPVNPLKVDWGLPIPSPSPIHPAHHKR
Sequence (P08514 891-1039 partner limits assumed): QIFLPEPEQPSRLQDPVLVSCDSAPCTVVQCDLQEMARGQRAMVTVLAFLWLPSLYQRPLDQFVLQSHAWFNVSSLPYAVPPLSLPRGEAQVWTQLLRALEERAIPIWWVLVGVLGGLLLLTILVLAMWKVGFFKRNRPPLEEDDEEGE
Sequence (P05106 27-788): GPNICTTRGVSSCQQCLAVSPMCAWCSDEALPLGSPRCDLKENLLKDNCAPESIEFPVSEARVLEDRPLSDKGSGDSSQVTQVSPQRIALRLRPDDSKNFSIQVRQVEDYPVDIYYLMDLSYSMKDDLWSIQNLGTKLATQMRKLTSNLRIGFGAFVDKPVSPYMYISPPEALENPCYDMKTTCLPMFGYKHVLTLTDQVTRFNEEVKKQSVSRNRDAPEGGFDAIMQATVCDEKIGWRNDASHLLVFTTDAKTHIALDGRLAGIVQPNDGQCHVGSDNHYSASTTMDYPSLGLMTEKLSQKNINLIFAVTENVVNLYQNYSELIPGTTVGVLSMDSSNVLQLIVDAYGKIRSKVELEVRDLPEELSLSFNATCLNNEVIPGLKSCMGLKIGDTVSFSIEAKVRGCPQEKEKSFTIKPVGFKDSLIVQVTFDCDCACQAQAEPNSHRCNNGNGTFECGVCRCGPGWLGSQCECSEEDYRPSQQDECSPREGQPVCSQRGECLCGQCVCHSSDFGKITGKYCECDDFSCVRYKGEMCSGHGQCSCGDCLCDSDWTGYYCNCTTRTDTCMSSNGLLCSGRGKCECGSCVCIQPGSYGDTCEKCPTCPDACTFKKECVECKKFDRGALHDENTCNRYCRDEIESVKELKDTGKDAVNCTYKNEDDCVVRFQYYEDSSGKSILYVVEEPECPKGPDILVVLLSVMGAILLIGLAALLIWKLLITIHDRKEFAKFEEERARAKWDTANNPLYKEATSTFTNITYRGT
test method notes: Displacement of labeled Hr10 binding to inactive or PT-25-activated αIIbβ3-K562 cells (FACS)
Design: expressed in transfected cells; host or cells: K562
experimental conditions: active αIIbβ3; Alexa488-labeled Hr10; 1 mM Mg2+ and Ca2+; read-out: IC50, displacement of labeled Hr10 binding to mAb PT-25-activated αIIbβ3-K562
experimental endpoint: IC50 (nM)
All answers are understood in nM, so give the number only.

Need IC50 of O=C(N[C@@H](Cc1ccc(OCCCCC2CCNCC2)cc1)C(=O)O)c1nc2ccccc2o1 [M-tirofiban] , thanks.
247
